Assay: Metabolic stability in mouse liver microsomes assessed as parent compound remaining at 0.5 uM after 10 mins in presence of NADPH by LC-MS/MS analysis
metric: remaining at 10 min, 0.5 µM (%)

Below, each entry is followed by its recorded remaining at 10 min, 0.5 µM result.
{"columns": ["mol", "unit_of_measurement", "recorded_measurement"],
 "data": [
  ["c1ccc2c(c1)CN[C@@H](CN(CCCCNCC1CCSCC1)[C@H]1CCCc3cccnc31)C2", "%", 2.82],
  ["c1ccc2c(c1)CN[C@@H](CN(Cc1ccc(CNC3CCOCC3)cc1)[C@H]1CCCc3cccnc31)C2", "%", 34.8],
  ["CC(C)(CCN(C[C@H]1Cc2ccccc2CN1)[C@H]1CCCc2cccnc21)CNC1CCC(F)(F)CC1", "%", 16.8],
  ["CC(C)(CCN(C[C@H]1Cc2ccccc2CN1)[C@H]1CCCc2cccnc21)CNC1CCOCC1", "%", 49.8]
]}

a = c1cncc(CNCCCCN(C[C@H]2Cc3ccccc3CN2)[C@H]2CCCc3cccnc32)c1
b = c1ccc2c(c1)CN[C@@H](CN(CCCCNC1CCSCC1)[C@H]1CCCc3cccnc31)C2
c = CC(C)(N)CCCN(C[C@H]1Cc2ccccc2CN1)[C@H]1CCCc2cccnc21
d = CC1(C)CCC(NCC(C)(C)CCN(C[C@H]2Cc3ccccc3CN2)[C@H]2CCCc3cccnc32)CC1
stdin: Reorder: remaining at 10 min, 0.5 µM, max to min. Returns: the labels arranged in the requested order.
stdout: d, b, a, c

Values from ChEMBL document CHEMBL4052827
